# TARGET_DESC: PI3Kδ (p110δ/p85α) (Homo sapiens (Human))
# Sequence (O00329 whole entry): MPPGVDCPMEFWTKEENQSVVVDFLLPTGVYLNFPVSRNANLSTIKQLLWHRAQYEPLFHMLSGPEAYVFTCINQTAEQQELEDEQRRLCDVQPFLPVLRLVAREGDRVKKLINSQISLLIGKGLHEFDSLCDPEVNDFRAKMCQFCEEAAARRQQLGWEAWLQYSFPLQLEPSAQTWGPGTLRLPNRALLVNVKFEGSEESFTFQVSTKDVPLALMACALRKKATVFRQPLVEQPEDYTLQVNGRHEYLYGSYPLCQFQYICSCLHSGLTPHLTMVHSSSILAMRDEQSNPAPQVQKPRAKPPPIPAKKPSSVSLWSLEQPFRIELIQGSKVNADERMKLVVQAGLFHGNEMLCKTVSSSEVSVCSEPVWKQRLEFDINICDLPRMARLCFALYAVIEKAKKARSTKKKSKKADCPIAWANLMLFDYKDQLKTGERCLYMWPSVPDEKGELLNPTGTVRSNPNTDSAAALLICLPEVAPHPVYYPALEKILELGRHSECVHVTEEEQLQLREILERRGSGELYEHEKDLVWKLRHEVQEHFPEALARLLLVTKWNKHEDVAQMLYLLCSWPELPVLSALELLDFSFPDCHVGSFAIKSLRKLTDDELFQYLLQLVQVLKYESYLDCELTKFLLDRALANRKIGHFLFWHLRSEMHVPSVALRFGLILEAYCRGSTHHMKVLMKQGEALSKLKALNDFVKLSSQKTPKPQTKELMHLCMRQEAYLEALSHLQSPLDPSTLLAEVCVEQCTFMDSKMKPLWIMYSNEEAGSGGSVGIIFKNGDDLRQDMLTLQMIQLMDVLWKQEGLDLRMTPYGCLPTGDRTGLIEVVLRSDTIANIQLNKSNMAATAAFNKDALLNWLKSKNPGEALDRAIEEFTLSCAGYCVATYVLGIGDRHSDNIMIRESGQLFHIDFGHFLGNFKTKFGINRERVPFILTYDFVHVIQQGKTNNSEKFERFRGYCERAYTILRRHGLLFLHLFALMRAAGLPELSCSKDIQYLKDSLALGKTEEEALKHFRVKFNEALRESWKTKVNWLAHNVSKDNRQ
# Sequence (P27986 whole entry partner): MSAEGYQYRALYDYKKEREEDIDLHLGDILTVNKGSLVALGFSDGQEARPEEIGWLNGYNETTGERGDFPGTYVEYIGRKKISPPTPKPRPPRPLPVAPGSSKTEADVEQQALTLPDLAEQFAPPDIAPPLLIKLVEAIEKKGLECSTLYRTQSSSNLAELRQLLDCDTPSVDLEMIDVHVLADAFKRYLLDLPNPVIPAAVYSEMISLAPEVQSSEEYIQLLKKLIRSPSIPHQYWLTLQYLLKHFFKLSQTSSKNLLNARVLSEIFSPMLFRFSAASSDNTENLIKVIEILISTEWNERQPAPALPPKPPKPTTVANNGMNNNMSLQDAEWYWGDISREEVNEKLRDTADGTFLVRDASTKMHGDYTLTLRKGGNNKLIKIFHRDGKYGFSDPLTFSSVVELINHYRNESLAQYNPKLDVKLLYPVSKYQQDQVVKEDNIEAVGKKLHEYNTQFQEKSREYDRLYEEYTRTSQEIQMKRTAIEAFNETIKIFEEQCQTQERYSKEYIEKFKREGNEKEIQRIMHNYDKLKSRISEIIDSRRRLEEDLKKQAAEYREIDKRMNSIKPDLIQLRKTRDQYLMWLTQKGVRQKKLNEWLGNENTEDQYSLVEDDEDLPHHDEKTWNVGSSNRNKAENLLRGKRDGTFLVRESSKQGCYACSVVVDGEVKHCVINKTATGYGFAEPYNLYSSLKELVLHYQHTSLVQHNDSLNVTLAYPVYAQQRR
# METHOD: cell-free PI3K HTRF assay, PI3Kδ
# CONDITION_CONTEXT: 10-dose IC50 mode, 3-fold serial dilution starting at 1 μM; ATP 10 μM; read-out: IC50 value for the inhibition of PI3Kδ
QUANTITY: IC50

>>> print(df.to_string())
                                   compound     result
0  N#Cc1c(N)ncnc1N1CCC[C@H]1c1cc2cccc(Cl)c2nc1-c1ccccc1  < 0.05 nM
1  Nc1nc(N2CCCC2c2cc3ccc(F)cc3nc2N2CCCCC2)c2nc[nH]c2n1 (centres unmarked)     0.9 nM
2  Clc1cccc2cc([C@@H]3CCCN3c3ncnc4[nH]cnc34)c(N3CCOCC3)nc12     1.8 nM
3  Fc1ccc2cc(C3CCCN3c3ncnc4[nH]cnc34)c(-c3ccncc3)nc2c1 (centres unmarked)     521 nM
4  Cc1cccc2cc([C@@H]3CCCN3c3ncnc(N)c3C#N)c(N3CCOCC3)nc12  < 0.05 nM
5  COc1ccccc1-c1nc2cc(F)ccc2cc1C1CCCN1c1ncnc2[nH]cnc12 (centres unmarked)      14 nM
6  N#Cc1c(N)ncnc1N1CCCC1c1cc2ccc(F)cc2nc1N1CCCCC1 (centres unmarked)     0.1 nM
7  Fc1ccc2cc([C@@H]3CCCN3c3ncnc4[nH]cnc34)c(-c3ccccn3)nc2c1    12.8 nM

###

# TARGET_DESC: PI3Kγ (p110γ) (Homo sapiens (Human), UniProt P48736)
# Sequence (P48736 whole entry): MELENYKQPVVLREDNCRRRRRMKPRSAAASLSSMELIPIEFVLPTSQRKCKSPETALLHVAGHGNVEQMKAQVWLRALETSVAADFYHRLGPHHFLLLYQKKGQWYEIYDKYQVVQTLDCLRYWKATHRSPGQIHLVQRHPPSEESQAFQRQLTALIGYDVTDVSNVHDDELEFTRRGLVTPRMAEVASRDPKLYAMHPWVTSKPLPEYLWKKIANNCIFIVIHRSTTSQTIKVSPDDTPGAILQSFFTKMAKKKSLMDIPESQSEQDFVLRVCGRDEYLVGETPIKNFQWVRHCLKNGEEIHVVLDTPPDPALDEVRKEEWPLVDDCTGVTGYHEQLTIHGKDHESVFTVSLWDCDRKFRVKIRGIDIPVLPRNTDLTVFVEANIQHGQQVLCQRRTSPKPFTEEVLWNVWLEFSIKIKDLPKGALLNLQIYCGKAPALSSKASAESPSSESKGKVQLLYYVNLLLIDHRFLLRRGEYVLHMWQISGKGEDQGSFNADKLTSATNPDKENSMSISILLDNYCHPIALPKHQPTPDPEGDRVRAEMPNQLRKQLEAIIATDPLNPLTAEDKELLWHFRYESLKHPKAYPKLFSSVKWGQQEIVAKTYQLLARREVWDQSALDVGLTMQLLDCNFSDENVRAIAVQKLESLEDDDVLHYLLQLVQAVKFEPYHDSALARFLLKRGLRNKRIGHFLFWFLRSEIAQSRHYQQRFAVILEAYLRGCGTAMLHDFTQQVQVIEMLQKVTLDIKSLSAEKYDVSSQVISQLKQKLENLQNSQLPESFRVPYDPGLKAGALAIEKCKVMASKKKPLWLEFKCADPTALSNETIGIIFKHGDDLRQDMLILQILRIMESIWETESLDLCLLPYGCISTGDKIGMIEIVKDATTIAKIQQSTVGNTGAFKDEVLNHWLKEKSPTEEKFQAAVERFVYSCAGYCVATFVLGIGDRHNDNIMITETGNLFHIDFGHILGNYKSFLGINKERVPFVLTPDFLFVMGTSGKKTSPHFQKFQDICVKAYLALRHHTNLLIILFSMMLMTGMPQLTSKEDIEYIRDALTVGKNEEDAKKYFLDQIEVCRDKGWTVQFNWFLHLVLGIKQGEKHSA
# METHOD: cell-free PI3K HTRF assay, PI3Kγ
# Assay type: biochemical
# CONDITION_CONTEXT: ratio of IC50 against PI3Kγ related to PI3Kδ; 10-dose, 3-fold serial dilution starting at 10 μM
Labelling: Ratio (γ/δ) reported below 50 becomes yes (1); at or above becomes no (0).

In [3]: df
Out[3]:
                                   compound  qualitative_label
0  Fc1ccc2cc(C3CCCN3c3ncnc4[nH]cnc34)c(-c3cccnc3)nc2c1 (centres unmarked) [Compound 1]            yes (1)
1  N#Cc1c(N)ncnc1N1CC=CCC1c1cc2ccc(F)cc2nc1-c1ccccc1 (centres unmarked) [Compound 42]             no (0)
2  Cc1cccc2cc([C@@H]3CCCN3c3ncnc4[nH]cnc34)c(-c3ccccc3)nc12 [Compound 63]            yes (1)
3  N#Cc1c(N)ncnc1N1CC=CCC1c1cc2ccc(F)cc2nc1N1CCOCC1 (centres unmarked) [Compound 44]             no (0)
4  Fc1ccc2cc(C3CCCN3c3ncnc4[nH]cnc34)c(-c3ccccn3)nc2c1 (centres unmarked) [Compound 10]             no (0)
5  Fc1ccc2cc(C3CCCN3c3ncnc4[nH]cnc34)c(N3CCOCC3)nc2c1 (centres unmarked) [Compound 20]            yes (1)
6  N#Cc1c(N)ncnc1N1CCCC1c1cc2ccc(F)cc2nc1N1CCCCC1 (centres unmarked) [Compound 18]             no (0)
7  Fc1ccc2cc(C3CC=CCN3c3ncnc4[nH]cnc34)c(N3CCOCC3)nc2c1 (centres unmarked) [Compound 43]            yes (1)
